# method-description: DSSTox (CPDBAS) Carcinogenic Potency Database Summary SingleCellCall Results
# condition-details: animal chronic carcinogenicity bioassays, CPDB summary call
The source made the active and inactive calls.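 How the source made its calls: active means a tumor-causing dose value with its tumor site reported for any sex and species group of a rodent or other animal cancer study; inconclusive means only studies judged inadequate by the national testing program; inactive means tested in at least one study, none positive.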
Classes used: 1 (yes) = active, 0 (no) = inactive

{"compound": "[O-][Br+2]([O-])O", "qualitative-label": "1 (yes)"}
{"compound": "CCn1c2ccccc2c2cc(N)ccc21", "qualitative-label": "1 (yes)"}
{"compound": "CC(=O)Nc1ccc(O)cc1", "qualitative-label": "1 (yes)"}
{"compound": "CC(C)n1c(/C=C/[C@@H](O)C[C@@H](O)CC(=O)O)c(-c2ccc(F)cc2)c2ccccc21", "qualitative-label": "1 (yes)"}
{"compound": "CN(C)C(=O)Nc1ccc(Cl)c(Cl)c1", "qualitative-label": "0 (no)"}
{"compound": "C=CC=O", "qualitative-label": "0 (no)"}
{"compound": "ClC1=C(Cl)C2(Cl)C3C(Cl)OC(Cl)C3C1(Cl)C2(Cl)Cl (configuration not stated)", "qualitative-label": "0 (no)"}
{"compound": "CC(=O)Nc1ccc(OCC(O)CNC(C)C)cc1 (configuration not stated)", "qualitative-label": "0 (no)"}
{"compound": "CCn1nc(C)c2c1C(c1ccccc1)=NCC(=O)N2", "qualitative-label": "1 (yes)"}
{"compound": "Cc1ccccc1OCC(O)CNCCn1cc(C)c(=O)[nH]c1=O (configuration not stated)", "qualitative-label": "0 (no)"}
{"compound": "CC=O", "qualitative-label": "1 (yes)"}
{"compound": "S=C(SSSSSSC(=S)N1CCCCC1)N1CCCCC1", "qualitative-label": "0 (no)"}
{"compound": "CC[C@H](C)[C@H]1O[C@]2(CC[C@@H]1C)C[C@@H]1C[C@@H](C/C=C(\\C)[C@@H](O[C@H]3C[C@H](OC)[C@@H](O[C@H]4C[C@H](OC)[C@@H](O)[C@H](C)O4)[C@H](C)O3)[C@@H](C)/C=C/C=C3\\CO[C@@H]4[C@H](O)C(C)=C[C@@H](C(=O)O1)[C@]34O)O2", "qualitative-label": "0 (no)"}
{"compound": "CCCCCCCCCc1ccc(OCCOCCO)cc1", "qualitative-label": "0 (no)"}
{"compound": "O=C(O)c1ccc(N=Nc2ccc(O)c(C(=O)O)c2)cc1", "qualitative-label": "0 (no)"}
{"compound": "O=C(O[C@@H]1Cc2c(O)cc(O)cc2O[C@@H]1c1cc(O)c(O)c(O)c1)c1cc(O)c(O)c(O)c1", "qualitative-label": "0 (no)"}
{"compound": "COCCl", "qualitative-label": "1 (yes)"}
{"compound": "[Cl-].[Cl-].[Hg+2]", "qualitative-label": "1 (yes)"}
{"compound": "C=C1CC[C@H](O)C/C1=C/C=C1\\CCC[C@]2(C)[C@@H]([C@H](C)/C=C/[C@H](C)C(C)C)CC[C@@H]12", "qualitative-label": "0 (no)"}
{"compound": "CCCCOC(=O)COc1ccc(Cl)cc1Cl", "qualitative-label": "0 (no)"}
{"compound": "N#CC(c1ccccc1)c1ccccc1", "qualitative-label": "0 (no)"}
{"compound": "Nc1ccc2c(c1)oc1ccccc12", "qualitative-label": "1 (yes)"}
{"compound": "Cc1cnc2ccc3c(nc(N)n3C)c2n1", "qualitative-label": "1 (yes)"}
{"compound": "Brc1cc(-c2ccc(Br)c(Br)c2Br)cc(Br)c1Br", "qualitative-label": "0 (no)"}
{"compound": "CCc1cccc2c3c([nH]c12)C(CC)(CC(=O)O)OCC3 (configuration not stated)", "qualitative-label": "0 (no)"}
{"compound": "CCCC(Cl)CCC(Cl)CCC(Cl)CCC(Cl)CCC(Cl)CCC(Cl)CCC(C)Cl (configuration not stated)", "qualitative-label": "1 (yes)"}
{"compound": "NC(=O)CI", "qualitative-label": "0 (no)"}
{"compound": "c1ccc(OCC2CO2)cc1 (configuration not stated)", "qualitative-label": "1 (yes)"}
{"compound": "CC12CCC(CC1)C(C)(C)O2", "qualitative-label": "0 (no)"}
{"compound": "O=c1[nH]nc(-c2ccc([N+](=O)[O-])o2)o1", "qualitative-label": "1 (yes)"}
{"compound": "O=C1C2(Cl)C3(Cl)C4(Cl)C(Cl)(Cl)C5(Cl)C3(Cl)C1(Cl)C5(Cl)C24Cl (configuration not stated)", "qualitative-label": "1 (yes)"}
{"compound": "C/C=C1/C[C@@H](C)[C@@](C)(O)C(=O)OC/C2=C/CN(C)CC[C@@H](OC1=O)C2=O", "qualitative-label": "1 (yes)"}
{"compound": "Cc1cccc(C)c1N", "qualitative-label": "0 (no)"}
{"compound": "Nc1nc(N)nc(-c2cc(Cl)ccc2Cl)n1", "qualitative-label": "0 (no)"}
{"compound": "C[C@@H]1Cc2c(Cl)cc(C(=O)N[C@@H](Cc3ccccc3)C(=O)O)c(O)c2C(=O)O1", "qualitative-label": "1 (yes)"}
{"compound": "O=NN1C[C@H](O)C[C@H]1C(=O)O", "qualitative-label": "0 (no)"}
{"compound": "O=C1CCc2ccccc2O1", "qualitative-label": "1 (yes)"}
{"compound": "CN[C@@H](C)[C@H](O)c1ccccc1", "qualitative-label": "0 (no)"}
{"compound": "CN1CCCC1=O", "qualitative-label": "1 (yes)"}
{"compound": "C[C@]12CC[C@@H]3c4ccc(OC(=O)Cc5ccc(N(CCCl)CCCl)cc5)cc4CC[C@H]3[C@@H]1CC[C@@H]2OC(=O)Cc1ccc(N(CCCl)CCCl)cc1", "qualitative-label": "1 (yes)"}
{"compound": "CCOP(=O)=O.CCOP(=O)=O.CCOP(=O)=O.[Al+3]", "qualitative-label": "1 (yes)"}
{"compound": "O.O.O.O.O.O.O.O.O=S(=O)([O-])[O-].O=S(=O)([O-])[O-].O=S(=O)([O-])[O-].[Cd+2].[Cd+2].[Cd+2]", "qualitative-label": "0 (no)"}
{"compound": "CCCCCCCCCC[N+](C)(C)[O-]", "qualitative-label": "0 (no)"}
{"compound": "C/C=C(/C)C(=O)O[C@H]1CCN2CC=C(COC(=O)[C@](O)([C@H](C)OC)C(C)(C)O)[C@H]12", "qualitative-label": "1 (yes)"}
{"compound": "COc1ccc(C(=O)Nc2c(Cl)cncc2Cl)cc1OC1CCCC1", "qualitative-label": "1 (yes)"}
{"compound": "ClC1C2(Cl)C3C4C5OC5C5C4C1(Cl)C(Cl)(C53)C2(Cl)Cl (configuration not stated)", "qualitative-label": "0 (no)"}
{"compound": "CCCN(CCC)c1c([N+](=O)[O-])cc(C(F)(F)F)cc1[N+](=O)[O-]", "qualitative-label": "1 (yes)"}
